Assay: qHTS screen for small molecules that inhibit ELG1-dependent DNA repair in human embryonic kidney (HEK293T) cells expressing luciferase-tagged ELG1; further: nearly all actives have a fitted effect of over 55% in size
Details: HEK293T ELG1-luciferase reporter, luminescence, 16 h, DNA damage induced by 5-fluorouridine; series mostly up to 46.1 µM
Among all 330,000 compounds or so, about 7,700 (2.3%) were called active. Not shown: some 26% with an inconclusive outcome. The call rests on the fitted dose curve; in most records, active means well fitted inhibition curve with a large enough effect; inconclusive means small, poorly fitted or top-dose-only effect, or effect the other way; inactive means flat fitted curve, though single readings scatter. What follows is part of a selection rich in actives, with near analogues and random picks from the rest.
Pick one: active, inactive

Solved cases below.
CCOC(=O)c1c(-c2ccccc2)csc1NC(=S)NC(=O)c1ccccc1 ... inactive
Cc1cc(C)c(S(=O)(=O)n2cc(C(C)C(N)C(=O)O)c3ccccc32)c(C)c1 (stereo unspecified) ... inactive
O=S(=O)(c1cccs1)N1CCN(CCOc2ccccc2)CC1 ... inactive
CNC(=O)c1ccc(NC(=O)c2cccc(C(F)(F)F)c2)cc1 ... inactive
CC(C)COc1ccc(C(=O)NNC(=O)CCC(=O)c2cccs2)cc1 ... inactive

Query :: Can you look up the reported call for CCOC(=O)c1c(-c2ccc(C)cc2)csc1/N=C(\C)C1=C(O)c2ccccc2C1=O for me?
Result :: active

Query :: Can you look up the reported call for Cc1cccc(NC(=O)N(Cc2cc3cc(C)cc(C)c3[nH]c2=O)CC2COCCO2)c1 (stereo unspecified) for me?
Result :: active

Query :: Can you look up the reported call for Cc1nc(NC(=O)c2cccc(Cl)c2)sc1-c1csc(Nc2cccc(Cl)c2)n1 for me?
Result :: inactive

Query :: Can you look up the reported call for COc1ccccc1C(CNC(=O)c1ccc(C)c(S(=O)(=O)N2CCCCC2)c1)N(C)C (stereo unspecified) for me?
Result :: inactive

Query :: Can you look up the reported call for COc1ccccc1C(=O)Nc1ccc(C)c(S(=O)(=O)N2CCCCC2)c1 for me?
Result :: active

Query :: Can you look up the reported call for CCOc1ccccc1NC(=O)c1cc(S(=O)(=O)N2CCC3(CC2)OCCO3)ccc1F for me?
Result :: inactive
